target_of_assay: HLA-A2 (Homo sapiens, UniProt P04439, D140Y/D185E/D98H/E176V/E277Q/G131W/G231S/I119V/I121R/I166T/I218V/L300P/L318F/N151K/N90K/P208A/P217A/Q86G/Q94H/R138H/R169H/T345S)
Construct: host or cells: T2 cells (human T-B lymphoblast hybrid, TAP1/TAP2 deficient)
experiment_summary: T2 binding assay (HLA-A2 expression on T2 cells by flow cytometry)
measurement_setup: T2 binding assay, enhanced xage-1 14 peptides; read-out: Binding Affinity to HLA-A2 (FI50)
pEC50: −log10 of the molar value. Where a SMILES comes first, the peptide text is derived from it.
So basically: pEC50 at 6 or higher? That is T. Lower than 6? That is F.

{"compound": "CC(C)C[C@H](NC(=O)[C@@H](N)Cc1ccc(O)cc1)C(=O)N[C@@H](Cc1ccccc1)C(=O)N1CCC[C@H]1C(=O)N[C@@H](CO)C(=O)N[C@@H](C)C(=O)N1CCC[C@H]1C(=O)N[C@@H](CO)C(=O)N1CCC[C@H]1C(=O)N[C@H](C(=O)O)C(C)C [1Y2L xage-1 14, YLFPSAPSPV] (H-YLFPSAPSPV-OH; N-terminus and C-terminus assumed)", "assigned_class": "F"}
{"compound": "CSCC[C@H](NC(=O)[C@@H](NC(=O)CN)C(C)C)C(=O)N1CCC[C@H]1C(=O)N[C@@H](CO)C(=O)N[C@@H](C)C(=O)N1CCC[C@H]1C(=O)N[C@@H](CO)C(=O)N1CCC[C@H]1C(=O)N[C@H](C(=O)O)C(C)C [3M xage-1 14, GVMPSAPSPV] (H-GVMPSAPSPV-OH; N-terminus and C-terminus assumed)", "assigned_class": "T"}
{"compound": "CSCC[C@H](NC(=O)[C@H](CC(C)C)NC(=O)CN)C(=O)N1CCC[C@H]1C(=O)N[C@@H](CO)C(=O)N[C@@H](C)C(=O)N1CCC[C@H]1C(=O)N[C@@H](CO)C(=O)N1CCC[C@H]1C(=O)N[C@H](C(=O)O)C(C)C [2L3M xage-1 14, GLMPSAPSPV] (H-GLMPSAPSPV-OH; N-terminus and C-terminus assumed)", "assigned_class": "T"}
{"compound": "CC(C)C[C@H](NC(=O)CN)C(=O)N[C@@H](Cc1ccccc1)C(=O)N1CCC[C@H]1C(=O)N[C@@H](CO)C(=O)N[C@@H](C)C(=O)N1CCC[C@H]1C(=O)N[C@@H](CO)C(=O)N1CCC[C@H]1C(=O)N[C@H](C(=O)O)C(C)C [2L xage-1 14, GLFPSAPSPV] (H-GLFPSAPSPV-OH; N-terminus and C-terminus assumed)", "assigned_class": "F"}
{"compound": "CC(C)[C@H](NC(=O)[C@@H]1CCCN1C(=O)[C@H](CO)NC(=O)[C@@H]1CCCN1C(=O)[C@H](C)NC(=O)[C@H](CO)NC(=O)[C@@H]1CCCN1C(=O)[C@H](Cc1ccccc1)NC(=O)[C@@H](NC(=O)[C@@H](N)Cc1ccc(O)cc1)C(C)C)C(=O)O [1Y xage-1 14, YVFPSAPSPV] (H-YVFPSAPSPV-OH; N-terminus and C-terminus assumed)", "assigned_class": "F"}
